Test system: Staphylococcus aureus
Test: Antibacterial activity against vancomycin-intermediate resistant Staphylococcus aureus Mu50 assessed as inhibition of bacterial growth after 16 hrs
Assay type: functional, organism-based
Conditions: Mu50, 16 h
Listed here are molecules together with their documented IC50.
Supply the numeric figure in µg/mL, leaving out any unit text.

CCCCCCOC(CN[C@@]1(C)C[C@H](O[C@H]2[C@H](Oc3c4cc5cc3Oc3ccc(cc3Cl)[C@@H](O)[C@@H](NC(=O)[C@@H](CC(C)C)NC)C(=O)N[C@@H](CC(N)=O)C(=O)N[C@H]5C(=O)N[C@H]3C(=O)N[C@H](C(=O)N[C@H](C(=O)O)c5cc(O)cc(O)c5-c5cc3ccc5O)[C@H](O)c3ccc(c(Cl)c3)O4)O[C@H](CO)[C@@H](O)[C@@H]2O)O[C@@H](C)[C@H]1O)C(=O)OC (stereo partly drawn): 4
CN[C@H](CC(C)C)C(=O)N[C@H]1C(=O)N[C@@H](CC(N)=O)C(=O)N[C@H]2C(=O)N[C@H]3C(=O)N[C@H](C(=O)N[C@H](C(=O)O)c4cc(O)cc(O)c4-c4cc3ccc4O)[C@H](O)c3ccc(c(Cl)c3)Oc3cc2cc(c3O[C@@H]2O[C@H](CO)[C@@H](O)[C@H](O)[C@H]2O[C@H]2C[C@](C)(NCC(OCc3ccc(-c4ccc(Cl)cc4)cc3)C(=O)O)[C@H](O)[C@H](C)O2)Oc2ccc(cc2Cl)[C@H]1O (stereo partly drawn): 2

Here is another molecule to look at.
Asked: // returns reported IC50 for input CN[C@H](CC(C)C)C(=O)N[C@H]1C(=O)N[C@@H](CC(N)=O)C(=O)N[C@H]2C(=O)N[C@H]3C(=O)N[C@H](C(=O)N[C@H](C(=O)O)c4cc(O)cc(O)c4-c4cc3ccc4O)[C@H](O)c3ccc(c(Cl)c3)Oc3cc2cc(c3O[C@@H]2O[C@H](CO)[C@@H](O)[C@H](O)[C@H]2O[C@H]2C[C@](C)(NCC(OCc3ccccc3)C(=O)O)[C@H](O)[C@H](C)O2)Oc2ccc(cc2Cl)[C@H]1O (stereo partly drawn)
Given back: 64

---

# reported IC50; entries follow
System: Staphylococcus aureus
Assay: Antibacterial activity against vancomycin-intermediate resistant Staphylococcus aureus Mu50 assessed as inhibition of bacterial growth after 16 hrs
Format: functional, organism-based
Settings: Mu50, 16 h
Record the value in µg/mL, omitting the unit from your answer.

Here is how some molecules turned out for IC50.
CN[C@H](CC(C)C)C(=O)N[C@H]1C(=O)N[C@@H](CC(N)=O)C(=O)N[C@H]2C(=O)N[C@H]3C(=O)N[C@H](C(=O)N[C@H](C(=O)O)c4cc(O)cc(O)c4-c4cc3ccc4O)[C@H](O)c3ccc(c(Cl)c3)Oc3cc2cc(c3O[C@@H]2O[C@H](CO)[C@@H](O)[C@H](O)[C@H]2O[C@H]2C[C@](C)(NCC(OCc3ccc(-c4ccc(Cl)cc4)cc3)C(=O)OC)[C@H](O)[C@H](C)O2)Oc2ccc(cc2Cl)[C@H]1O (stereo partly specified): 2
CCCCCCOC(CN[C@@]1(C)C[C@H](O[C@H]2[C@H](Oc3c4cc5cc3Oc3ccc(cc3Cl)[C@@H](O)[C@@H](NC(=O)[C@@H](CC(C)C)NC)C(=O)N[C@@H](CC(N)=O)C(=O)N[C@H]5C(=O)N[C@H]3C(=O)N[C@H](C(=O)N[C@H](C(=O)O)c5cc(O)cc(O)c5-c5cc3ccc5O)[C@H](O)c3ccc(c(Cl)c3)O4)O[C@H](CO)[C@@H](O)[C@@H]2O)O[C@@H](C)[C@H]1O)C(=O)O (stereo partly specified): 8
CN[C@H](CC(C)C)C(=O)N[C@H]1C(=O)N[C@@H](CC(N)=O)C(=O)N[C@H]2C(=O)N[C@H]3C(=O)N[C@H](C(=O)N[C@H](C(=O)O)c4cc(O)cc(O)c4-c4cc3ccc4O)[C@H](O)c3ccc(c(Cl)c3)Oc3cc2cc(c3O[C@@H]2O[C@H](CO)[C@@H](O)[C@H](O)[C@H]2O[C@H]2C[C@](C)(NCC(OCc3ccccc3)C(=O)OC)[C@H](O)[C@H](C)O2)Oc2ccc(cc2Cl)[C@H]1O (stereo partly specified): 32
CCCCOC(CN[C@@]1(C)C[C@H](O[C@H]2[C@H](Oc3c4cc5cc3Oc3ccc(cc3Cl)[C@@H](O)[C@@H](NC(=O)[C@@H](CC(C)C)NC)C(=O)N[C@@H](CC(N)=O)C(=O)N[C@H]5C(=O)N[C@H]3C(=O)N[C@H](C(=O)N[C@H](C(=O)O)c5cc(O)cc(O)c5-c5cc3ccc5O)[C@H](O)c3ccc(c(Cl)c3)O4)O[C@H](CO)[C@@H](O)[C@@H]2O)O[C@@H](C)[C@H]1O)C(=O)OC (stereo partly specified): 64
CN[C@H](CC(C)C)C(=O)N[C@H]1C(=O)N[C@@H](CC(N)=O)C(=O)N[C@H]2C(=O)N[C@H]3C(=O)N[C@H](C(=O)N[C@H](C(=O)O)c4cc(O)cc(O)c4-c4cc3ccc4O)[C@H](O)c3ccc(c(Cl)c3)Oc3cc2cc(c3O[C@@H]2O[C@H](CO)[C@@H](O)[C@H](O)[C@H]2O[C@H]2C[C@](C)(N)[C@H](O)[C@H](C)O2)Oc2ccc(cc2Cl)[C@H]1O [VANCOMYCIN]: 8

Asked: Param item = CCCCOC(CN[C@@]1(C)C[C@H](O[C@H]2[C@H](Oc3c4cc5cc3Oc3ccc(cc3Cl)[C@@H](O)[C@@H](NC(=O)[C@@H](CC(C)C)NC)C(=O)N[C@@H](CC(N)=O)C(=O)N[C@H]5C(=O)N[C@H]3C(=O)N[C@H](C(=O)N[C@H](C(=O)O)c5cc(O)cc(O)c5-c5cc3ccc5O)[C@H](O)c3ccc(c(Cl)c3)O4)O[C@H](CO)[C@@H](O)[C@@H]2O)O[C@@H](C)[C@H]1O)C(=O)O (stereo partly specified) ; retrieve measured IC50.
Given back: 128
